B1: Pistol ribozyme (parent)
chain: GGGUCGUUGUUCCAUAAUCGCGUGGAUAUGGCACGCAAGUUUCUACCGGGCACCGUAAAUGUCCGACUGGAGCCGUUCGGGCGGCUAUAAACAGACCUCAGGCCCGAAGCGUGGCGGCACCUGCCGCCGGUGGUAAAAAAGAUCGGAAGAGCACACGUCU

variants of: B1; test: aptazyme ON/OFF ratio, guanine; higher = stronger switching; co-transcriptional cleavage with and without guanine
measured.property: aptazyme ON/OFF ratio
Give bare numbers.

variant_annotation="U7A G9C U10C U11C C12U C13G" number=1.04
variant_annotation="U7C U8C G9U U10G U11A C12A C13U" number=1.17
variant_annotation="U7C U8G G9A U10C U11C C12U" number=1.01
variant_annotation="U7G G9C U10G U11C C12U C13A" number=1.29

# per-item lookup of aptazyme ON/OFF ratio; items listed below
1. U7G U8A G9U U10A U11A C12U C13U
2. U7A U8G G9A U10C U11A C13G

## Output
[1.06, 1.1]

For each of the variants below, note its aptazyme ON/OFF ratio.
1. U8G U10A U11A C12U C13U
2. U7A G9U U11C C12A C13A
3. U7A U8G G9C U10G U11G C12G C13A

## Output
[1.14, 1.24, 1.32]

Dear reader, for each entry below, please note its aptazyme ON/OFF ratio.
1. U8G G9C U10C U11C C12G C13G
2. U7A C12G C13A

## Output
1: 1.09; 2: 1.38

I have 8 variants here; please give me aptazyme ON/OFF ratio for each one.
1. U7C U8G G9U U10A U11G C12U C13U
2. U8A G9U U11A C13A
3. U7C U10G U11A
4. U7C U8C G9A U10G C12U C13U
5. U8G U10A U11C C12U C13A
6. U7C G9A U10G U11A C12G
7. U7A U8C U11G C12A C13A
8. U7A U8C G9U U10G U11C C12G C13A

## Output
[1.14, 1.1, 1.1, 1.42, 1.2, 1.21, 1.07, 1.22]
